Each entry below lists one item and its recorded %Inh value.
system: PCTK3; construct: gene CDK18; conditions: concentration: 1 μM, replicates: in singlicate; n = 1;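 further: KINOMEscan kinase panel screen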
Form entry: value (%) — number only.

COc1cccc(NC(=O)NCCNc2ccnc(Nc3ccc(F)cc3)n2)c1
0
Fc1cc(Cl)ccc1Nc1ccnc2cc(-c3ccc(CN4CCOCC4)o3)ccc12
0
N#CC1(c2cccc(C(=O)Nc3cccc(Oc4ccc5nc(NC(=O)C6CC6)sc5n4)c3)c2)CC1
1

In: Item under review: "Cc1cc(-c2c(-c3ccc(F)cc3)ncn2CCCN2CCOCC2)nc(N)n1" . Reported %Inh?
Out: 0

In: Item under review: "Nc1cccc(-c2ccc3c(N)n[nH]c3c2)c1" . Reported %Inh?
Out: 4

In: Item under review: "Nc1ncc(-c2cn[nH]c2)c2scc(-c3ccc4c(c3)CCN4C(=O)Cc3ccccc3)c12" . Reported %Inh?
Out: 29

In: Item under review: "Cc1ccc(NC(=O)c2ccc(Cl)c(Cl)c2)cc1-c1ccc(C(=O)Nc2ccncc2)cc1" . Reported %Inh?
Out: 25
